Hi there, I'd appreciate the recorded pIC50 for every entry that follows.
# system_tested: Human recombinant MMP-13 (Homo sapiens)
# Construct: made in house; host or cells: baculovirus / insect cells
# method: In vitro MMP inhibition, IC50 determination (fluorogenic substrate I)
# Assay type: biochemical
# conditions: value outside parentheses
Give bare numbers, as −log10 of the molar value.

Illustrative cases are given below, each with its answer.
[[record]]
molecule = "COc1cccc(CC(=O)NCCOc2ccc(S(=O)(=O)C3(C(=O)NO)CCOCC3)cc2)c1 [Example 602]"
system_tested = "Human recombinant MMP-13 (Homo sapiens)"
measured = 8.44

[[record]]
molecule = "O=C(NO)C1(S(=O)(=O)c2ccc(OCCCc3cccc(-c4ccsc4)c3)cc2)CCOCC1 [Example 632]"
system_tested = "Human recombinant MMP-13 (Homo sapiens)"
measured = 8.80

[[record]]
molecule = "COc1cc2c(cc1OC)CN(C(=O)NCCCOc1ccc(S(=O)(=O)C3(C(=O)NO)CCOCC3)cc1)CC2 [Example 496]"
system_tested = "Human recombinant MMP-13 (Homo sapiens)"
measured = 8.08


Your task in this section: give pIC50 for each listed record.
1. CC(C)Oc1cccc(NC(=O)CCCOc2ccc(S(=O)(=O)C3(C(=O)NO)CCOCC3)cc2)c1 [Example 583]
2. O=C(NO)C1(S(=O)(=O)c2ccc(OCCCc3cncc(Br)c3)cc2)CCOCC1 [Example 522]

1: 8.80; 2: 9.52

Could you report pIC50 for every entry in the following list?
1. O=C(NCCOc1ccc(S(=O)(=O)C2(C(=O)NO)CCOCC2)cc1)c1ccc(-c2cccc(C(F)(F)F)c2)o1 [Example 610]
2. O=C(NO)C1(S(=O)(=O)c2ccc(OCCCc3cccc(-c4ccoc4)c3)cc2)CCOCC1 [Example 637]

1. 8.39
2. 8.74

---

Assignment: determine reported pIC50 for the given compounds.
# system_tested: Human recombinant MMP-9 (Homo sapiens)
# Construct: made in house; host or cells: MMP-9-transfected HT1080 cells (spent media)
# Sequence (P14780 107-707 limits assumed): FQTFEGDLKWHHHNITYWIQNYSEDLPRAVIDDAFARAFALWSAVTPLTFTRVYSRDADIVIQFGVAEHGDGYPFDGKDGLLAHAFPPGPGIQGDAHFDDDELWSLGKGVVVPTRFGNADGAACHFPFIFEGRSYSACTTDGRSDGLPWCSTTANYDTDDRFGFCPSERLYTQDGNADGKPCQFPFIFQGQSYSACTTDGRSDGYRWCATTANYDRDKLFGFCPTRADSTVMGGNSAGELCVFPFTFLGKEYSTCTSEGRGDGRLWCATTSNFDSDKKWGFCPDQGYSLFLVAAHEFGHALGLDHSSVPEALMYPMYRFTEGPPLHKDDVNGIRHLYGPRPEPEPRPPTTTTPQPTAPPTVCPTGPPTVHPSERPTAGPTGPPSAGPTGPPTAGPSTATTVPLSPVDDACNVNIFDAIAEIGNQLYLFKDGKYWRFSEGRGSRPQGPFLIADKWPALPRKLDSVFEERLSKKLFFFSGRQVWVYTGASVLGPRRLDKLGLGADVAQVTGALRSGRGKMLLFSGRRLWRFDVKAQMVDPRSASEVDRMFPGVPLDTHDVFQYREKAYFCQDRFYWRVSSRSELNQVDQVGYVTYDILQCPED
# method: In vitro MMP inhibition, IC50 determination (fluorogenic substrate I)
# Format: biochemical
# conditions: value outside parentheses (Ki in parenthesis)
One number for each entry, as −log10 of the molar value.

A selection of reference data follows.
[[record]]
smiles_notation = "O=C(NO)C1(S(=O)(=O)c2ccc(OCCCOc3ccc(F)cc3F)cc2)CCOCC1"
system_tested = "Human recombinant MMP-9 (Homo sapiens)"
measured = 7.36

[[record]]
smiles_notation = "CN(CCc1ccccc1)S(=O)(=O)CCCOc1ccc(S(=O)(=O)C2(C(=O)NO)CCOCC2)cc1"
system_tested = "Human recombinant MMP-9 (Homo sapiens)"
measured = 6.79


Please turn your attention to the following entry.
The compound listed as Cc1ccc(C(=O)NCCCOc2ccc(S(=O)(=O)C3(C(=O)NO)CCOCC3)cc2)c(C)c1 has a reported pIC50 of 5.40

---

Please respond with reported pIC50 for every item in the list.
# system_tested: Human recombinant MMP-1 (Homo sapiens, UniProt P03956)
# Construct: made in house; host or cells: MMP-1-transfected HT-1080 cells (spent media)
# Sequence (P03956 100-469): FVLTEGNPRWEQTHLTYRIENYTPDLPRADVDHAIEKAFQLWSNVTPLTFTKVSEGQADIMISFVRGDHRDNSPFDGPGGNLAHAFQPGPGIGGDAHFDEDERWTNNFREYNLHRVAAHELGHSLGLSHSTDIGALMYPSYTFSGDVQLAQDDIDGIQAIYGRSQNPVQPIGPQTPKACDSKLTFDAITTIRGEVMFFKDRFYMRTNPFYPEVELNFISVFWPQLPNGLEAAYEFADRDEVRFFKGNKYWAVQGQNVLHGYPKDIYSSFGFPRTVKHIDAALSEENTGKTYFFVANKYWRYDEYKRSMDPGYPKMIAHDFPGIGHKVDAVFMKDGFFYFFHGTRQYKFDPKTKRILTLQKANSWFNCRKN
# method: In vitro MMP inhibition, IC50 determination (fluorogenic substrate I)
# Format: biochemical
# conditions: value outside parenthesis
pIC50: −log10 of the molar value.

[[record]]
compound = "O=C(NO)C1(S(=O)(=O)c2ccc(OCCCc3cccc(-c4ccccc4)c3)cc2)CCOCC1 [Example 269]"
measured = "< 5.00"


Hi, could you look up pIC50 for each item in my list?
1. Cc1cccc(-c2noc(CCCOc3ccc(S(=O)(=O)C4(C(=O)NO)CCOCC4)cc3)n2)c1 [Example 238]
2. CC(CCOc1ccc(S(=O)(=O)C2(C(=O)NO)CCOCC2)cc1)C(=O)c1cccs1 (stereo not drawn) [Example 276]
3. O=C(NO)C1(S(=O)(=O)c2ccc(OCCCc3nc(-c4cccc([N+](=O)[O-])c4)no3)cc2)CCOCC1 [Example 210]
4. CN(C)c1ccc(C(=O)CCCCOc2ccc(S(=O)(=O)C3(C(=O)NO)CCN(C4CC4)CC3)cc2)cc1 [Example 267]

< 5.00
5.18
< 5.00
< 5.00

Hi! Can you tell me pIC50 for each of these compounds?
1. CN(C)Cc1ccc(C(=O)CCCCOc2ccc(S(=O)(=O)C3(C(=O)NO)CCN(C4CC4)CC3)cc2)cc1 [Example 187]
2. O=C(NO)C1(S(=O)(=O)c2ccc(OCCCc3cccc(-c4ccccc4F)c3)cc2)CCOCC1 [Example 163]
3. CN(CCCOc1ccc(S(=O)(=O)C2(C(=O)NO)CCOCC2)cc1)C(=O)c1ccc2ccccc2c1 [Example 289]
4. O=C(NO)C1(S(=O)(=O)c2ccc(OCCCc3nc(-c4ccc([N+](=O)[O-])cc4)no3)cc2)CCOCC1 [Example 212]
5. COCCN1CCC(C(=O)NO)(S(=O)(=O)c2ccc(OCCCCC(=O)c3ccc(OC)cc3)cc2)CC1 [Example 245]
6. COc1ccc(C(=O)CCCCOc2ccc(S(=O)(=O)C3(C(=O)NO)CCN(C4CC4)CC3)cc2)cc1 [Example 277]
7. O=C(NO)C1(S(=O)(=O)c2ccc(OCCCc3cccc(-c4ccc(F)cc4)c3)cc2)CCN(C2CC2)CC1 [Example 139]
8. O=C(NO)C1(S(=O)(=O)c2ccc(OCCc3cccc(-c4ccc(F)c(F)c4)c3)cc2)CCOCC1 [Example 122]

1: 5.41; 2: < 5.00; 3: < 5.00; 4: 5.85; 5: < 5.00; 6: < 5.00; 7: < 5.00; 8: < 5.00

---

# system_tested: Human recombinant MMP-2 (Homo sapiens, UniProt P08253)
# Construct: made in house; host or cells: MMP-2-transfected p2AHT2 cells
# Sequence (P08253 110-660): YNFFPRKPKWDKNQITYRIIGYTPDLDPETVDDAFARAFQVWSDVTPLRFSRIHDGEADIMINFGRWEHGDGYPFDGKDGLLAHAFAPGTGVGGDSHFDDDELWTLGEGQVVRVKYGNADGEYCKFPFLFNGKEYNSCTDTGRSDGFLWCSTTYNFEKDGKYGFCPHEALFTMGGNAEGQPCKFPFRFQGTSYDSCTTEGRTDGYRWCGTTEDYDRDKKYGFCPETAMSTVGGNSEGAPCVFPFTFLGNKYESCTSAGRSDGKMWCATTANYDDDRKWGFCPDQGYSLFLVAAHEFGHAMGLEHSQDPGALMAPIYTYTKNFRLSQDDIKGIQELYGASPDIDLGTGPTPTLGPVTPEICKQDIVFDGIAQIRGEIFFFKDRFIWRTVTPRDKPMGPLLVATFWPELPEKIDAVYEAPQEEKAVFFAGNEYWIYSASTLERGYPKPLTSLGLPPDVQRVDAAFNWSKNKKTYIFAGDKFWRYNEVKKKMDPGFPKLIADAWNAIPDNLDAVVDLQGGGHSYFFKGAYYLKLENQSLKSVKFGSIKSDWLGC
# method: In vitro MMP inhibition, IC50 determination (fluorogenic substrate I)
# Type: biochemical
# conditions: value outside parentheses
Provide the recorded pIC50 for the entries that follow.
Give bare numbers, as −log10 of the molar value.

[[record]]
molecule = "O=C(NCCOc1ccc(S(=O)(=O)C2(C(=O)NO)CCOCC2)cc1)c1ccc(Br)s1 [Example 620]"
measurement_type = "pIC50"
measured = 7.79

[[record]]
molecule = "O=C(NO)C1(S(=O)(=O)c2ccc(OCCCc3cncc(-c4ccc(F)cc4)c3)cc2)CCOCC1 [Example 523]"
measurement_type = "pIC50"
measured = 6.79

[[record]]
molecule = "O=C(NCCSc1ccc(S(=O)(=O)C2(C(=O)NO)CCOCC2)cc1)c1ccc(-c2ccc(O)cc2)cc1 [Example 605]"
measurement_type = "pIC50"
measured = 7.36

[[record]]
molecule = "O=C(NCCSc1ccc(S(=O)(=O)C2(C(=O)NO)CCOCC2)cc1)c1nc2ccccc2o1 [Example 576]"
measurement_type = "pIC50"
measured = 6.63

[[record]]
molecule = "COc1cccc(CC(=O)NCCOc2ccc(S(=O)(=O)C3(C(=O)NO)CCOCC3)cc2)c1 [Example 602]"
measurement_type = "pIC50"
measured = 7.86

[[record]]
molecule = "O=C(NO)C1(S(=O)(=O)c2ccc(OCCn3nnc4ccccc4c3=O)cc2)CCOCC1 [Example 590]"
measurement_type = "pIC50"
measured = 6.07


We now examine a further molecule.
Item: COc1ccc(CC(=O)NCCOc2ccc(S(=O)(=O)C3(C(=O)NO)CCOCC3)cc2)cc1 [Example 616] | pIC50: 8.28

---

# system_tested: Human recombinant MMP-2 (Homo sapiens, UniProt P08253)
# Construct: made in house; host or cells: MMP-2-transfected p2AHT2 cells
# method: In vitro MMP inhibition, Ki determination (fluorogenic substrate II)
# Assay type: biochemical
# conditions: value in parentheses
# Protocol: Several hydroxamates and salts thereof were analyzed in in vitro assays to determine their ability to inhibit the MMP cleavage of peptide substrates. Inhibition (Ki) and IC50 constants were calculated from the assayed hydroxamate-MMP interactions. […] The assays from which the Ki determinations were made were performed as follows. […] In the absence of MMP inhibitory activity, substrate II was cleaved at the Gly-Leu bond resulting in an increase of relative fluorescence. […]
measurement_type: pKi
Give bare numbers, as −log10 of the molar value.

Some compounds with known pKi results, for comparison:
[[record]]
smiles_notation = "COCCN1CCC(C(=O)NO)(S(=O)(=O)c2ccc(OCCCc3cccc(-c4cccc(F)c4)c3)cc2)CC1"
system_tested = "Human recombinant MMP-2 (Homo sapiens, UniProt P08253)"
measured = 6.28

[[record]]
smiles_notation = "O=C(NO)C1(S(=O)(=O)c2ccc(OCCc3ccc(-c4ccc(O)cc4)cc3)cc2)CCOCC1"
system_tested = "Human recombinant MMP-2 (Homo sapiens, UniProt P08253)"
measured = 6.47

[[record]]
smiles_notation = "O=C(NCCSc1ccc(S(=O)(=O)C2(C(=O)NO)CCOCC2)cc1)c1nc2ccccc2s1"
system_tested = "Human recombinant MMP-2 (Homo sapiens, UniProt P08253)"
measured = 6.22


Record COCCN1CCC(C(=O)NO)(S(=O)(=O)c2ccc(OCCCc3cccc(-c4cccs4)c3)cc2)CC1 . Reported pKi: 8.11
